test system: Hela; experiment: Inhibition of cell proliferation (Hela); type: cell-based; settings: Homo sapiens, Table 2B, Cervical, average, read-out: IC50 Aver, Hela
Quantity name: pIC50
Numbers only, as −log10 of the molar value.

Req: Fill in the blank: the reported pIC50 of CCOc1ccc(-c2nnc(SCC(=O)Nc3cc(C)cc(C)c3)[nH]2)cc1 [ACT-CK-050] is ____.
Resp: 7.66

###

experiment: Microsomal stability in human liver microsomes; assay type: in vitro ADME
For each record, write down the corresponding % Metabolized (mean).
One number for each entry, in %.

Compound	Value units	% Metabolized (mean)
Cc1cc(C)cc(NC(=O)CSc2nnc(-c3ccc(OCCO)cc3)[nH]2)c1 [ACT-CK-155]	%	69

Could you tell me % Metabolized (mean) for each of these compounds? They are listed below.
1. CCOc1ccc(-c2nnc(SCC(=O)Nc3cc(C)cc(C)c3)[nH]2)cc1F [ACT-CK-154]
2. CCOc1ccc(-c2nnc(SCC(=O)Nc3cc(C)cc(C)c3)[nH]2)cc1 [ACT-CK-050]

Resp:
1. 99
2. 99

###

test system: K562; test: Inhibition of cancer cell proliferation, Alamar Blue assay (K562); assay type: cell-based; conditions: Homo sapiens, Table 2A, Alamar Blue, 72 hours exposure, read-out: IC50s K562
Class membership depends on IC50 alone; the intervals are low band = under 3 µM, middle band = from 3 µM up to 30 µM, high band = 30 µM and over

Answered cases to consult:
Smiles entry	Class label
CCCOc1ccc(-c2nnc(SCC(=O)Nc3cc(OC)cc(OC)c3)[nH]2)cc1	middle band
CCOc1ccc(-c2nnc(SCC(=O)Nc3cc(C)cc(C)c3)[nH]2)cc1C	low band
COc1ccc(-c2nnc(SCC(=O)Nc3cccc(C)c3C)[nH]2)cc1	high band

As a next step, examine the compound that follows.
Req: Kindly identify the class of "COc1ccc(-c2nnc(SCC(=O)Nc3cc(C)ccc3F)[nH]2)cc1" .
Resp: middle band

###

test system: DU145; test: Inhibition of cell proliferation (DU145); type: cell-based; conditions: Homo sapiens, DU-145; Table 2B; Prostate; average; read-out: IC50 Aver, DU145
Quantity name: IC50 (nM)
Numbers only, in nM.

Req: Bench note: what IC50 did "CCOc1ccc(-c2nnc(SCC(=O)Nc3cc(C)cc(C)c3)[nH]2)cc1" show?
Resp: 597

###

system: MDA-MB-231; assay: Inhibition of cancer cell proliferation, Alamar Blue assay (MDA-MB-231); format: cell-based; conditions: Homo sapiens, Table 2A, Alamar Blue, 72 hours exposure, read-out: IC50s MDA-MB231
Response field class: string, computed from recorded IC50 by ranges label 0: < 20 µM; label 1: ≥ 20 µM and < 50 µM; label 2: ≥ 50 µM

Completed entries (count: 4):
Smiles entry	Assay system	Class label
CCOc1ccc(-c2nnc(SCC(=O)Nc3cccc(C)c3)[nH]2)cc1	MDA-MB-231	label 0
Cc1cc(C)cc(NC(=O)CSc2nnc(-c3cc4ccccc4[nH]3)[nH]2)c1	MDA-MB-231	label 0
CCOc1ccc(-c2nnc(SCC(=O)Nc3ccc(F)cc3F)[nH]2)cc1	MDA-MB-231	label 2
CCOc1ccc(-c2nnc(SCC(=O)Nc3nc(C)cc(C)n3)[nH]2)cc1	MDA-MB-231	label 1

Req: Which bin should I file "CCOc1ccc(-c2nnc(SCC(=O)Nc3cc(F)ccc3C)[nH]2)cc1" under?
Resp: label 0

Req: Would you kindly repeat that for "CCOc1ccc(-c2nnc(SCC(=O)Nc3cc(C)cc(C)c3)[nH]2)cc1F" ?
Resp: label 0

###

Biological target: Choline Kinase α (CKα) (Homo sapiens)
Construct: GST
Sequence (P35790 whole entry): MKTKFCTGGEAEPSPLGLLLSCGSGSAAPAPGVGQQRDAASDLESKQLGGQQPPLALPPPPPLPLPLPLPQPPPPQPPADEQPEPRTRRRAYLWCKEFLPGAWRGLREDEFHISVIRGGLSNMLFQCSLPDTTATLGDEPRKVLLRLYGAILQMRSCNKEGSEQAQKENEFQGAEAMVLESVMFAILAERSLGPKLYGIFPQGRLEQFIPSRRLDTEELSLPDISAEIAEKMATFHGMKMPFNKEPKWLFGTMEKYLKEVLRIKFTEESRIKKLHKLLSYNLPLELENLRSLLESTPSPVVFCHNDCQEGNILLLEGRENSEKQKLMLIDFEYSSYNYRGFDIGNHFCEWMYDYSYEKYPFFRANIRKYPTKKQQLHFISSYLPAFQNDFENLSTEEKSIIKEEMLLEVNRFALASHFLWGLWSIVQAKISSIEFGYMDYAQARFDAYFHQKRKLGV
Assay: Inhibition of Choline Kinase α, kinase activity assay
Settings: recombinant CKα expressed in E. coli
Procedure: CKα was prepared by expression in E. coli (Bl21(DE3)) and purified by GST column and column chromatography. […] The recombinant protein was pure and active as determined by the results of a kinase activity assay.
Quantity name: IC50 (µM)
Give bare numbers, in µM.

Example entries begin here.
Compound	Value units	Test value
CCOc1ccc(-c2nnc(SCC(=O)N(C)c3cc(C)cc(C)c3)[nH]2)cc1 [ACT-CK-153]	µM	30
CCOc1ccc(-c2nnc(SCC(=O)Nc3cc(OC)cc(OC)c3)[nH]2)cc1 [ACT-CK-109]	µM	18
CCOc1ccc(-c2nnc(SCC(=O)Nc3cccc(OC)c3)[nH]2)cc1 [ACT-CK-157]	µM	50

Lab note: next compound to report on.
Req: Could you share which IC50 value was measured for CCOc1ccc(-c2nnc(SCC(=O)Nc3cc(C)cc(C)c3)[nH]2)cc1 [ACT-CK-050] ?
Resp: 20

###

tested on: HT-29; assay: Inhibition of cell proliferation (HT-29); type: cell-based; settings: Homo sapiens, Table 2B, Colon, average, read-out: IC50 Aver, HT-29
Quantity name: IC50 (µM)
Answers are plain numbers, in µM.

Req: Give the reported IC50 for CCOc1ccc(-c2nnc(SCC(=O)Nc3cc(C)cc(C)c3)[nH]2)cc1 [ACT-CK-050] (system: HT-29).
Resp: 89.7

###

Please go through the items and note down their % Metabolized (mean).
assay: Microsomal stability in human liver microsomes; type: in vitro ADME
Provide a numeric answer, followed by its unit.

Smiles entry	% Metabolized (mean)
CCOc1ccc(-c2nnc(SCC(=O)Nc3cc(C)cc(C)c3)[nH]2)cc1C	99%
CCOc1ccc(-c2nnc(SCC(=O)Nc3cc(C)cc(C)c3)[nH]2)cn1	34%
CCOc1ccc(-c2nnc(SCC(=O)Nc3nc(C)cc(C)n3)[nH]2)cc1	54%
CCOc1ccc(-c2nnc(SCC(=O)Nc3cc(C(F)(F)F)cc(C(F)(F)F)c3)[nH]2)cc1	47%
Cc1cc(C)cc(NC(=O)CSc2nnc(-c3ccc(O)cc3)[nH]2)c1	85%

Provide reported % Metabolized (mean) for each item, in the same order as listed.
1. CCOc1ccc(-c2nnc(SCC(=O)N(C)c3cc(C)cc(C)c3)[nH]2)cc1
2. CCOc1ccc(-c2nnc(SCC(=O)Nc3cc(C)nc(C)c3)[nH]2)cc1
3. CCOc1ccc(-c2nnc(SCC(=O)Nc3cc(C)cc(C)n3)[nH]2)cc1

Resp:
99%
91%
91%

###

test: Permeability in Caco2 cells; format: in vitro ADME; details: human, Caco-2; Caco2 cells, apical to basal
Quantity name: Papp A→B
Number plus unit, in that order.

Req: Need Papp A→B of CCOc1ccc(-c2nnc(SCC(=O)Nc3cc(C)cc(C)c3)[nH]2)cc1 [ACT-CK-050] , thanks.
Resp: 46.1 ×10⁻⁶ cm/s

###

tested on: K562; test: Inhibition of cancer cell proliferation, Alamar Blue assay (K562); assay type: cell-based; details: Homo sapiens, Table 2A, Alamar Blue, 72 hours exposure, read-out: IC50s K562
Quantity name: pIC50
Answers are plain numbers, as −log10 of the molar value.

Before answering, review these 8 worked examples.
Compound	pIC50
CCOc1ccc(-c2nnc(SCC(=O)Nc3ccc(F)cc3F)[nH]2)cc1 [ACT-CK-064]	4.40
COc1ccc(-c2nnc(SCC(=O)Nc3c(F)cccc3F)[nH]2)cc1 [ACT-CK-061]	4.55
COc1cccc(-c2nnc(SCC(=O)Nc3cc(C)cc(C)c3)[nH]2)c1 [ACT-CK-140]	4.39
CCOc1ccc(-c2nnc(SCC(=O)Nc3cccc(C)c3C)[nH]2)cc1 [ACT-CK-076]	4.83
CCOc1ccc(-c2nnc(SCC(=O)Nc3cc(C)cc(C)n3)[nH]2)cc1 [ACT-CK-147]	6.01
CCOc1ccc(-c2nnc(SCC(=O)Nc3cc(C)cc(C)c3)[nH]2)cc1 [ACT-CK-050]	7.40
CCCOc1ccc(-c2nnc(SCC(=O)Nc3cc(C)cc(C)c3)[nH]2)cc1 [ACT-CK-118]	5.85
CCOc1cccc(-c2nnc(SCC(=O)Nc3cc(C)cc(C)c3)[nH]2)c1 [ACT-CK-141]	4.41

For each of the compounds below, state pIC50.
1. CCOc1ccc(-c2nnc(SCC(=O)Nc3cc(C)ccc3F)[nH]2)cc1 [ACT-CK-071]
2. CCOc1ccc(-c2nnc(SCC(=O)Nc3ccc(OC)cc3C)[nH]2)cc1 [ACT-CK-087]
3. CCOc1ccc(-c2nnc(SCC(=O)Nc3cc(F)ccc3C)[nH]2)cc1 [ACT-CK-067]
4. CCOc1ccc(-c2nnc(SCC(=O)Nc3cc(C)cc(C)c3)[nH]2)cc1F [ACT-CK-154]

Resp:
1: 6.09; 2: 5.05; 3: 5.80; 4: 6.10

Count: 6. Required value per item: pIC50.
1. CCCOc1ccc(-c2nnc(SCC(=O)Nc3cc(C)ccc3F)[nH]2)cc1 [ACT-CK-120]
2. CCOc1ccc(-c2nnc(SCC(=O)Nc3ccc(C)cc3C)[nH]2)cc1 [ACT-CK-097]
3. COc1ccc(-c2nnc(SCC(=O)Nc3cc(F)ccc3C)[nH]2)cc1 [ACT-CK-066]
4. Cc1cc(C)cc(NC(=O)CSc2nnc(-c3ccc(O)cc3)[nH]2)c1 [ACT-CK-146]
5. CCOc1ccc(-c2nnc(SCC(=O)Nc3nc(C)cc(C)n3)[nH]2)cc1 [ACT-CK-148]
6. COc1ccc(-c2nnc(SCC(=O)Nc3ccc(C)cc3C)[nH]2)cc1 [ACT-CK-096]

Resp:
4.37
5.42
4.94
4.50
6.14
4.47

I would be grateful if you could provide pIC50 for each of the following entries.
1. Cc1cc(C)cc(NC(=O)CSc2nnc(-c3cc4ccccc4[nH]3)[nH]2)c1 [ACT-CK-124]
2. CCOc1ccc(-c2nnc(SCC(=O)Nc3cc(OC)ccc3OC)[nH]2)cc1 [ACT-CK-093]
3. CCOc1ccc(-c2nnc(SCC(=O)Nc3cccc(C)c3)[nH]2)cc1 [ACT-CK-156]

Resp:
1: 4.64; 2: 5.21; 3: 5.49
